Target: USP30 (Homo sapiens (Human))
Sequence (Q70CQ3 whole entry): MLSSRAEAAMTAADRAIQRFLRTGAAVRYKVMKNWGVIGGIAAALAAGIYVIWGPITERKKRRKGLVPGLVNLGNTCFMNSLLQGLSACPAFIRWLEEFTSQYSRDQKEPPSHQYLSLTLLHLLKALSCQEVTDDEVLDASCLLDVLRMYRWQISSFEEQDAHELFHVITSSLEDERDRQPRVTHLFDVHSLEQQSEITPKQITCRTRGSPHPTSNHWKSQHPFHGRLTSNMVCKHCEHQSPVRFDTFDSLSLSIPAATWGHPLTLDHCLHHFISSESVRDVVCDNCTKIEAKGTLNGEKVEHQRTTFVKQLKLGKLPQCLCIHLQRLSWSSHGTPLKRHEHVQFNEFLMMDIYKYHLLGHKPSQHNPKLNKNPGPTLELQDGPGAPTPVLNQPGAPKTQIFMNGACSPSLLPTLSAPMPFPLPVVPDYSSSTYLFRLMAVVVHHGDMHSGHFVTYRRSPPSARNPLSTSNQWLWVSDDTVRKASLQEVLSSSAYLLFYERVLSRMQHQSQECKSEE
RECORDED_METRIC: IC50 (nM)

| MOLECULE | UNIT_OF_MEASURE | QUANTITATIVE_RESULT |
| --- | --- | --- |
| CC(C)(C)NS(=O)(=O)c1ccc(NC(=O)[C@H](CC2CCCCC2)NC(=O)c2ccc(F)c(F)c2)cc1 [Compound 14h] | nM | 31 |

(P) COc1ccc(C[C@H](NC(=O)c2ccccn2)C(=O)Nc2ccc(S(=O)(=O)NC(C)(C)C)cc2)cc1 [Compound 19u]
(Q) COc1ccc(C[C@H](NC(=O)c2ccc(F)cc2)C(=O)Nc2ccc(S(=O)(=O)NC(C)(C)C)cc2)cc1 [Compound 19f]
Among P and Q , which shows a numerically higher IC50 result? Answer by stating the label of the chosen item.
P
